Below, each of the compounds is paired with its reported MIC values, Actinobacillus pleuropneumoniae CVCC262 value.
tested on: Actinobacillus pleuropneumoniae CVCC262; experiment: in vitro susceptibility, MIC by mini broth dilution; assay type: cell-based; conditions: strain CVCC262
Numeric answer only, unit ug/mi assumed.

Here is how some compounds turned out for MIC values, Actinobacillus pleuropneumoniae CVCC262.
{"Compound": "CC[C@H]1OC(=O)[C@H](C)[C@@H](O[C@H]2C[C@@](C)(OC)[C@](O)(Cn3ccnc3)[C@H](C)O2)[C@H](C)[C@@H](O[C@@H]2O[C@H](C)C[C@H](N(C)C)[C@H]2O)[C@](C)(O)C[C@@H](C)NC[C@H](C)[C@@H](O)[C@]1(C)O", "Result Value": 0.5}
{"Compound": "CC[C@H]1OC(=O)[C@H](C)[C@@H](O[C@H]2C[C@@](C)(OC)[C@](O)(CNC(C)CCCN(C)C)[C@H](C)O2)[C@H](C)[C@@H](O[C@@H]2O[C@H](C)C[C@H](N(C)C)[C@H]2O)[C@](C)(O)C[C@@H](C)NC[C@H](C)[C@@H](O)[C@]1(C)O (stereo partly shown)", "Result Value": 32}

Find the recorded MIC values, Actinobacillus pleuropneumoniae CVCC262 belonging to CC[C@H]1OC(=O)[C@H](C)[C@@H](O[C@H]2C[C@@](C)(OC)[C@](O)(CNCCCC(=O)O)[C@H](C)O2)[C@H](C)[C@@H](O[C@@H]2O[C@H](C)C[C@H](N(C)C)[C@H]2O)[C@](C)(O)C[C@@H](C)NC[C@H](C)[C@@H](O)[C@]1(C)O and report it.
1

// query MIC values, Actinobacillus pleuropneumoniae CVCC262 value for entry CC[C@H]1OC(=O)[C@H](C)[C@@H](O[C@H]2C[C@@](C)(OC)[C@](O)(CNCCc3ccncc3)[C@H](C)O2)[C@H](C)[C@@H](O[C@@H]2O[C@H](C)C[C@H](N(C)C)[C@H]2O)[C@](C)(O)C[C@@H](C)NC[C@H](C)[C@@H](O)[C@]1(C)O
2

* * *

assay: acute oral toxicity test, LD50 by improved karber method; conditions: both, Konmin, mouse, in vivo, po
Mark True only for LD50 at 7 days values smaller than 3000 mg/kg; exact matches and larger values are False.

Here are 5 compounds together with their reported answers.
{"Compound": "CCNC[C@]1(O)[C@H](C)OC(O[C@@H]2[C@@H](C)[C@@H](O[C@@H]3O[C@H](C)C[C@H](N(C)C)[C@H]3O)[C@](C)(O)C[C@@H](C)NC[C@@H](C)[C@H](O)[C@](C)(O)[C@H](CC)OC(=O)[C@@H]2C)C[C@@]1(C)OC (stereo partly drawn) [syzx-10]", "Category Label": "True"}
{"Compound": "CC[C@@H]1OC(=O)[C@H](C)[C@H](OC2C[C@@](C)(OC)[C@](O)(CN(CC)CC)[C@H](C)O2)[C@@H](C)[C@@H](O[C@@H]2O[C@H](C)C[C@H](N(C)C)[C@H]2O)[C@](C)(O)C[C@@H](C)NC[C@@H](C)[C@H](O)[C@]1(C)O (stereo partly drawn) [syzx-3]", "Category Label": "True"}
{"Compound": "CC[C@@H]1OC(=O)[C@H](C)[C@H](OC2C[C@@](C)(OC)[C@](O)(CNCC(C)C)[C@H](C)O2)[C@@H](C)[C@@H](O[C@@H]2O[C@H](C)C[C@H](N(C)C)[C@H]2O)[C@](C)(O)C[C@@H](C)NC[C@@H](C)[C@H](O)[C@]1(C)O (stereo partly drawn) [syzx-12]", "Category Label": "False"}
{"Compound": "CC[C@@H]1OC(=O)[C@H](C)[C@H](OC2C[C@@](C)(OC)[C@](O)(CN3CCOCC3)[C@H](C)O2)[C@@H](C)[C@@H](O[C@@H]2O[C@H](C)C[C@H](N(C)C)[C@H]2O)[C@](C)(O)C[C@@H](C)NC[C@@H](C)[C@H](O)[C@]1(C)O (stereo partly drawn) [syzx-5]", "Category Label": "True"}
{"Compound": "CC[C@@H]1OC(=O)[C@H](C)[C@H](OC2C[C@@](C)(OC)[C@](O)(CN3CCCCC3)[C@H](C)O2)[C@@H](C)[C@@H](O[C@@H]2O[C@H](C)C[C@H](N(C)C)[C@H]2O)[C@](C)(O)C[C@@H](C)NC[C@@H](C)[C@H](O)[C@]1(C)O (stereo partly drawn) [syzx-15]", "Category Label": "True"}

Below 3000 mg/kg on LD50 at 7 days? Entry CCCN1C[C@@H](C)[C@@H](O)[C@](C)(O)[C@H](CC)OC(=O)[C@H](C)[C@H](OC2C[C@@](C)(OC)[C@](O)(CN(C)CC)[C@H](C)O2)[C@H](C)[C@@H](O[C@@H]2O[C@H](C)C[C@H](N(C)C)[C@H]2O)[C@](C)(O)C[C@H]1C (stereo partly drawn) [syzx-213]
True

Quick check: does CC[C@@H]1OC(=O)[C@H](C)[C@H](OC2C[C@@](C)(OC)[C@](O)(CNC(C)(C)C)[C@H](C)O2)[C@@H](C)[C@@H](O[C@@H]2O[C@H](C)C[C@H](N(C)C)[C@H]2O)[C@](C)(O)C[C@@H](C)NC[C@@H](C)[C@H](O)[C@]1(C)O (stereo partly drawn) [syzx-14] have LD50 at 7 days under 3000 mg/kg?
True

Would you kindly verify if LD50 at 7 days of CC[C@@H]1OC(=O)[C@H](C)[C@H](OC2C[C@@](C)(OC)[C@](O)(CNCC3CC3)[C@H](C)O2)[C@@H](C)[C@@H](O[C@@H]2O[C@H](C)C[C@H](N(C)C)[C@H]2O)[C@](C)(O)C[C@@H](C)NC[C@@H](C)[C@H](O)[C@]1(C)O (stereo partly drawn) [syzx-17] is strictly less than 3000 mg/kg?
True

Please state whether LD50 at 7 days is below 3000 mg/kg for CC[C@@H]1OC(=O)[C@H](C)[C@H](OC2C[C@@](C)(OC)[C@](O)(CNCCOC)[C@H](C)O2)[C@@H](C)[C@@H](O[C@@H]2O[C@H](C)C[C@H](N(C)C)[C@H]2O)[C@](C)(O)C[C@@H](C)NC[C@@H](C)[C@H](O)[C@]1(C)O (stereo partly drawn) [syzx-58]
False
